# Tested on: Plasma
# PROCEDURE TEXT: Drug level in Sprague-Dawley rat plasma at 1 mg/kg, iv assessed as 2-methoxyestradiol level after 5 mins
# Assay type: ADME, organism-based
# Parameters: dose 1 mg/kg, route intravenous
# MEASUREMENT SETUP: in vivo
QUANTITY NAME: Cp
Report the figure along with its unit, number first.

* COc1cc2c(cc1OP(=O)([O-])O)CC[C@@H]1[C@@H]2CC[C@]2(C)[C@@H](O)CC[C@@H]12.[Na+] | 153.4 ng/mL
* COc1cc2c(cc1O)CC[C@@H]1[C@@H]2CC[C@]2(C)[C@@H](O)CC[C@@H]12 | 764 ng/mL

As a next step, examine the compound that follows.
Cp for `COc1cc2c(cc1O)CC[C@@H]1[C@@H]2CC[C@]2(C)[C@@H](OP(=O)(O)O)CC[C@@H]12` ?
34.1 ng/mL

----------
I'd be grateful if you could share measured concentration at 0.5 h for these entries.
# PROCEDURE TEXT: Drug level in Sprague-Dawley rat plasma at 1 mg/kg, iv after 30 mins
# Format: ADME, organism-based
# Parameters: dose 1 mg/kg, route intravenous
Answers are plain numbers, in ng/mL.

Quick one: give me concentration at 0.5 h for each item below, same order please.
1. COc1cc2c(cc1O)CC[C@@H]1[C@@H]2CC[C@]2(C)[C@@H](O)CC[C@@H]12 [2-METHOXYESTRADIOL]
2. COc1cc2c(cc1OP(=O)([O-])O)CC[C@@H]1[C@@H]2CC[C@]2(C)[C@@H](O)CC[C@@H]12.[Na+]
3. COc1cc2c(cc1O)CC[C@@H]1[C@@H]2CC[C@]2(C)[C@@H](OP(=O)(O)O)CC[C@@H]12

1: 44.7; 2: 7.1; 3: 138

----------
# Test system: Plasma
# PROCEDURE TEXT: Drug level in Sprague-Dawley rat plasma at 1 mg/kg, iv assessed as 2-methoxyestradiol level after 30 mins
# Format: ADME, organism-based
# Design: dose 1 mg/kg, route intravenous
# MEASUREMENT SETUP: in vivo, 0.5 h
QUANTITY NAME: Cp (ng/mL)
Answers are plain numbers, in ng/mL.

Recorded results for 2 compounds are shown here.
* COc1cc2c(cc1O)CC[C@@H]1[C@@H]2CC[C@]2(C)[C@@H](O)CC[C@@H]12 [2-METHOXYESTRADIOL] | 44.7
* COc1cc2c(cc1O)CC[C@@H]1[C@@H]2CC[C@]2(C)[C@@H](OP(=O)(O)O)CC[C@@H]12 | 9.2

As a next step, examine the compound that follows.
Cp for `COc1cc2c(cc1OP(=O)([O-])O)CC[C@@H]1[C@@H]2CC[C@]2(C)[C@@H](O)CC[C@@H]12.[Na+]` ?
22.3

----------
I'd be grateful if you could share measured concentration at 1 h for these entries.
# PROCEDURE TEXT: Drug level in Sprague-Dawley rat plasma at 1 mg/kg, iv after 60 mins
# Format: ADME, organism-based
# Design: dose 1 mg/kg, route intravenous
Report the figure along with its unit, number first.

Recorded results for 2 compounds are shown here.
* COc1cc2c(cc1O)CC[C@@H]1[C@@H]2CC[C@]2(C)[C@@H](OP(=O)(O)O)CC[C@@H]12 | 21.2 ng/mL
* COc1cc2c(cc1OP(=O)([O-])O)CC[C@@H]1[C@@H]2CC[C@]2(C)[C@@H](O)CC[C@@H]12.[Na+] | 1.2 ng/mL

concentration at 1 h for COc1cc2c(cc1O)CC[C@@H]1[C@@H]2CC[C@]2(C)[C@@H](O)CC[C@@H]12 [2-METHOXYESTRADIOL] ?
11.3 ng/mL

----------
# System: MDA-MB-435
# PROCEDURE TEXT: Cytotoxicity against human MDA-MB-435 cells
# Type: functional
QUANTITY NAME: log10(GI50) (log10 of the value in µM)
In our notation, the value equals log10 of GI50 in µM.

Recorded results for 4 molecules are shown here.
- CCOP(=O)(OCC)O[C@H]1CC[C@H]2[C@@H]3CCc4cc(O)c(OC)cc4[C@H]3CC[C@]12C: 1.12
- CCOP(=O)(OCC)Oc1cc2c(cc1OC)[C@H]1CC[C@]3(C)[C@@H](OP(=O)(OCC)OCC)CC[C@H]3[C@@H]1CC2: 1.75
- COc1cc2c(cc1O)CC[C@@H]1[C@@H]2CC[C@]2(C)[C@@H](O)CC[C@@H]12: -1.10
- COc1cc2c(cc1O)CC[C@@H]1[C@@H]2CC[C@]2(C)[C@@H](OP(=O)(O)O)CC[C@@H]12: 1.30

As a next step, examine the molecule that follows.
log10(GI50) for `COc1cc2c(cc1OP(=O)([O-])O)CC[C@@H]1[C@@H]2CC[C@]2(C)[C@@H](O)CC[C@@H]12.[Na+]` ?
-0.96

----------
# PROCEDURE TEXT: Drug level in Sprague-Dawley rat plasma at 1 mg/kg, iv after 15 mins
# Type: ADME, organism-based
# Parameters: dose 1 mg/kg, route intravenous
QUANTITY NAME: concentration at 0.25 h (ng/mL)
Numbers only, in ng/mL.

- COc1cc2c(cc1O)CC[C@@H]1[C@@H]2CC[C@]2(C)[C@@H](OP(=O)(O)O)CC[C@@H]12: 351

Quick one: give me concentration at 0.25 h for each item below, same order please.
1. COc1cc2c(cc1OP(=O)([O-])O)CC[C@@H]1[C@@H]2CC[C@]2(C)[C@@H](O)CC[C@@H]12.[Na+]
2. COc1cc2c(cc1O)CC[C@@H]1[C@@H]2CC[C@]2(C)[C@@H](O)CC[C@@H]12

1. 31.3
2. 168

----------
I'd be grateful if you could share measured log10 of GI50 for these entries.
# System: HCT-116
# PROCEDURE TEXT: Cytotoxicity against human HCT116 cells
# Assay type: functional
In our notation, the value equals log10 of GI50 in µM.

* COc1cc2c(cc1O)CC[C@@H]1[C@@H]2CC[C@]2(C)[C@@H](O)CC[C@@H]12 [2-METHOXYESTRADIOL] | -0.33
* CCOP(=O)(OCC)Oc1cc2c(cc1OC)[C@H]1CC[C@]3(C)[C@@H](OP(=O)(OCC)OCC)CC[C@H]3[C@@H]1CC2 | 1.31
* COc1cc2c(cc1O)CC[C@@H]1[C@@H]2CC[C@]2(C)[C@@H](OP(=O)(O)O)CC[C@@H]12 | 1.94
* COc1cc2c(cc1OP(=O)([O-])O)CC[C@@H]1[C@@H]2CC[C@]2(C)[C@@H](O)CC[C@@H]12.[Na+] | 0.16

log10 of GI50 for `CCOP(=O)(OCC)O[C@H]1CC[C@H]2[C@@H]3CCc4cc(O)c(OC)cc4[C@H]3CC[C@]12C` ?
1.28

----------
# PROCEDURE TEXT: Drug level in Sprague-Dawley rat plasma at 1 mg/kg, iv after 5 mins
# Assay type: ADME, organism-based
# Set-up: dose 1 mg/kg, route intravenous
I'd be grateful if you could share measured concentration at 5 min for these entries.
Numbers only, in ng/mL.

Recorded results for 2 compounds are shown here.
* COc1cc2c(cc1O)CC[C@@H]1[C@@H]2CC[C@]2(C)[C@@H](O)CC[C@@H]12 | 764
* COc1cc2c(cc1OP(=O)([O-])O)CC[C@@H]1[C@@H]2CC[C@]2(C)[C@@H](O)CC[C@@H]12.[Na+] | 366

As a next step, examine the compound that follows.
concentration at 5 min for `COc1cc2c(cc1O)CC[C@@H]1[C@@H]2CC[C@]2(C)[C@@H](OP(=O)(O)O)CC[C@@H]12` ?
1320
